experimental-system: glucagon receptor (human, UniProt P47871 26-477)
Sequence (P47871 26-477): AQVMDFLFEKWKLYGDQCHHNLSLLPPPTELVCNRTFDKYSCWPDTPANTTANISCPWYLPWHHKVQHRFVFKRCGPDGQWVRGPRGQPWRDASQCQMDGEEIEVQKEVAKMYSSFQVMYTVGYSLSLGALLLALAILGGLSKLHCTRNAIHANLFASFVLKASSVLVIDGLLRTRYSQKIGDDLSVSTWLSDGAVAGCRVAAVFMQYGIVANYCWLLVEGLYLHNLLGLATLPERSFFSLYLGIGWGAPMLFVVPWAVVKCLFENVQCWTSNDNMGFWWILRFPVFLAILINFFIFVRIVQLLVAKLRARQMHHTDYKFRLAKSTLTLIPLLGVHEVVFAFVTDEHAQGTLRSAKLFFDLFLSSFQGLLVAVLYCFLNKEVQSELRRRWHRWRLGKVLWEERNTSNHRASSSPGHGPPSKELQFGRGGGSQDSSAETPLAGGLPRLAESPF
assay-method-text: cell-based or functional assay
Starred links: 1 amine or outer side, 2 acyl side, 3 side chain; linkers in the order of their positions; H or OH if unused. Non-standard residues stand in square brackets, D forms with d. Groups on a side chain read outwards from the residue. Primed or numbered codes have the meaning given here. No end group written: not given here. *: point of attachment. γGlu = O=C(O)[C@H](CCC(=O)[*:2])N[*:1]; Stearoyl = CCCCCCCCCCCCCCCCCC(=O)*; αMeF = C[C@](N)(Cc1ccccc1)C(=O)O; αMeK = C[C@](N)(CCCCN)C(=O)O; αMeS = C[C@](N)(CO)C(=O)O; PEG2′ = not defined here; Aib = CC(C)(N)C(=O)O
value-type: Primary assay EC50 (cAMP), n1 (µM)

binder | Primary assay EC50 (cAMP), n1 (µM)
H[Aib]EGS[αMeF]TSDVSS[αMeF]LEGEAAKE[αMeF]IA[αMeF]VVKGGK([PEG2′-PEG2′-γGlu-Stearoyl])-NH2 [SEQ ID NO 38] | 0.025
H[Aib]EGS[αMeF]TSDV[αMeS]S[αMeF]LEGEAAK([PEG2′-PEG2′-γGlu-Stearoyl])E[αMeF]IA[αMeF]VV[αMeK]GG-NH2 [SEQ ID NO 33] | 0.025
H[Aib]EGS[αMeF]TSDV[αMeS]S[αMeF]LEGEAA[Aib]EFIK([PEG2′-PEG2′-γGlu-Stearoyl])WVVEGG-NH2 [SEQ ID NO 67] | 0.0254
H[Aib]EGS[αMeF]TSDVSS[αMeF]LEGEAAK([PEG2′-PEG2′-PEG2′-Stearoyl])E[αMeF]IA[αMeF]VV[αMeK]GG-NH2 [SEQ ID NO 52] | 0.026

Provenance of the data: patent US20200079833A1
